Values compiled from patent US10538554B2.

- Test system: H1N1 A/PR/8/1934
- stated.conditions: A/PR/8/1934, 48 h, 1 μM
Bridge positions count the residues as written; N and C are the ends. Square brackets hold non-standard residues; d marks the D form. Peptide text beside a SMILES is read from it.
Recorded % Inhibition by entry
Respond with the bare value in %.

compound	measure	data.value
CC[C@@H](C)[C@H]1NC(=O)[C@@H](Cc2ccccc2)NC(=O)[C@@H]([C@H](C)O)NC(=O)[C@@H](Cc2ccccc2)NC(=O)[C@@H](Cc2c[nH]c3ccccc23)NC(=O)[C@@H](Cc2c[nH]c3ccccc23)NC(=O)[C@H](NC(=O)[C@H](CCCCN)NC(=O)[C@H](CCCCN)NC(=O)[C@H](CCCNC(=N)N)NC(=O)[C@@H](N)CCCNC(=N)N)CSSC[C@H](C(=O)O)NC(=O)CNC1=O [PSP VI A6, H RRKKcwwftfiGc-OH] (H-RRKK[dC][dW][dW][dF][dT][dF][dI]G[dC]-OH; disulfide 5-13)	% Inhibition	69

Query: Need % Inhibition, item CC[C@@H](C)[C@H]1NC(=O)[C@@H](Cc2ccccc2)NC(=O)[C@@H]([C@H](C)O)NC(=O)[C@@H](Cc2ccccc2)NC(=O)[C@@H](Cc2c[nH]c3ccccc23)NC(=O)[C@@H](Cc2c[nH]c3ccccc23)NC(=O)[C@H](NC(=O)[C@H](CCCCN)NC(=O)[C@H](CCCCN)NC(=O)[C@H](CCCNC(=N)N)NC(=O)[C@@H](N)CCCNC(=N)N)CSSC[C@H](C(=O)O)NC(=O)[C@H]2CCCN2C1=O [PSP VI A13, H-RRKKcwwftfipc-OH] (H-RRKK[dC][dW][dW][dF][dT][dF][dI][dP][dC]-OH; disulfide 5-13)
Reply: 42

====

- System: H9N2 A/Iran/16/2000
- stated.conditions: 48 h
Bridge positions count the residues as written; N and C are the ends. Square brackets hold non-standard residues; d marks the D form. Peptide text beside a SMILES is read from it.
measure: IC50

Solved cases (3 shown):
compound	data.value
CC[C@@H](C)[C@H]1NC(=O)[C@@H](Cc2ccccc2)NC(=O)[C@@H](CCCNC(=N)N)NC(=O)[C@@H](Cc2ccccc2)NC(=O)[C@@H](Cc2c[nH]c3ccccc23)NC(=O)[C@@H]([C@H](C)O)NC(=O)[C@H](NC(=O)[C@H](CCCCN)NC(=O)[C@H](CCCCN)NC(=O)[C@H](CCCNC(=N)N)NC(=O)[C@@H](N)CCCNC(=N)N)CSSC[C@H](C(=O)O)NC(=O)[C@@H](CC(N)=O)NC1=O [PSP III B5, H-RRKKctwfrfinc-OH] (H-RRKK[dC][dT][dW][dF][dR][dF][dI][dN][dC]-OH; disulfide 5-13)	900 nM
C[C@@H](O)[C@@H]1NC(=O)[C@H](CCCCN)NC(=O)[C@H](CO)NC(=O)[C@H](CCCNC(=N)N)NC(=O)[C@H](Cc2ccccc2)NC(=O)[C@H](CC(=O)O)NC(=O)[C@H](CC(N)=O)NC(=O)[C@@H](N)CSSC[C@@H](C(=O)O)NC1=O [C-P1, H-CNDFRSKTC-OH, reference compound] (H-CNDFRSKTC-OH; disulfide 1-9)	> 320000 nM
CC[C@@H](C)[C@H]1NC(=O)[C@@H](Cc2ccccc2)NC(=O)[C@@H](Cc2ccccc2)NC(=O)[C@@H](Cc2ccccc2)NC(=O)[C@@H](Cc2c[nH]c3ccccc23)NC(=O)[C@@H]([C@H](C)O)NC(=O)[C@H](NC(=O)[C@H](CCCCN)NC(=O)[C@H](CCCCN)NC(=O)[C@H](CCCNC(=N)N)NC(=O)[C@@H](N)CCCNC(=N)N)CSSC[C@H](C(=O)O)NC(=O)[C@@H](CC(N)=O)NC1=O [PSP IV A5, H-RRKKctwfffinc-OH] (H-RRKK[dC][dT][dW][dF][dF][dF][dI][dN][dC]-OH; disulfide 5-13)	760 nM

Could you now look at the following compound, please?
Query: Need IC50, item CC[C@@H](C)[C@H]1NC(=O)[C@@H](Cc2ccccc2)NC(=O)[C@@H]([C@H](C)O)NC(=O)[C@@H](Cc2ccccc2)NC(=O)[C@@H](Cc2c[nH]c3ccccc23)NC(=O)[C@@H](Cc2c[nH]c3ccccc23)NC(=O)[C@H](NC(=O)[C@H](CCCCN)NC(=O)[C@H](CCCCN)NC(=O)[C@H](CCCNC(=N)N)NC(=O)[C@@H](N)CCCNC(=N)N)CSSC[C@H](C(=O)O)NC(=O)[C@@H](C)NC1=O [PSP VI A1, H-RRKKcwwftfiac-OH] (H-RRKK[dC][dW][dW][dF][dT][dF][dI][dA][dC]-OH; disulfide 5-13)
Reply: 10.4 nM
